Where do these numbers come from? They come from ChEMBL document CHEMBL2074372.

assaySystem: Solute carrier family 15 member 1 (Homo sapiens)
Sequence (P46059 whole entry): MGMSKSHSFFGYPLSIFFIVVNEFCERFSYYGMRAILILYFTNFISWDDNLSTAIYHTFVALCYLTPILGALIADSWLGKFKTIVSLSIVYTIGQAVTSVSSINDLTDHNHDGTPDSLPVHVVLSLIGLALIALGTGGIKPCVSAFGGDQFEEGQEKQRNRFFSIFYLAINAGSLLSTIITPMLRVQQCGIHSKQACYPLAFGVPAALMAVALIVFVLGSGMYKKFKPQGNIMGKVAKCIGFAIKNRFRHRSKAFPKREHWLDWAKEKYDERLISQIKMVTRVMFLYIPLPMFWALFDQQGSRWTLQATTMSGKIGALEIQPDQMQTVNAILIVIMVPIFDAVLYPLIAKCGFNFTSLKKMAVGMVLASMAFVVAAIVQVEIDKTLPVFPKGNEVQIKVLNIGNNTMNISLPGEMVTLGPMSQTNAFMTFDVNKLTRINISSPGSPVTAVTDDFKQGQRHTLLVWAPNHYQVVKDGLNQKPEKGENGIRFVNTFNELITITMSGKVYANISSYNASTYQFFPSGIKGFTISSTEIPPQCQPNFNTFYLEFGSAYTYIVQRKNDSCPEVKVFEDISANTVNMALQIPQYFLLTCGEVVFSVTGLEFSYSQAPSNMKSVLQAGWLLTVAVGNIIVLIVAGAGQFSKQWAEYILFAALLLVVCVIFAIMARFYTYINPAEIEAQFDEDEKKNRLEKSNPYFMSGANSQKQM
assayNotes: TP_TRANSPORTER: inhibition of Gly-Sar uptake (Gly-Sar: 20 uM) in PEPT1-expressing CHO cells
Below, each entry is listed with its recorded IC50.
// units = mM; emit number, no label

N[C@@H](C(=O)N[C@@H]1C(=O)N2C(C(=O)O)=C(Cl)CS[C@H]12)c1ccccc1 [CEFACLOR ANHYDROUS] :: 8.2
CCOC(=O)[C@H](CCc1ccccc1)N[C@@H](C)C(=O)N1CCC[C@H]1C(=O)O :: 4.5
C[C@](N)(Cc1ccc(O)c(O)c1)C(=O)O :: 152
N[C@@H](Cc1ccc(O)c(O)c1)C(=O)O :: 141

Alright, here's another compound for you.
Exercise: Value lookup for IC50; key = "CC1=C(C(=O)O)N2C(=O)[C@@H](NC(=O)[C@H](N)C3=CCC=CC3)[C@H]2SC1"
Key: 15.3
